Experiment: Plasma pharmacokinetics after single IP dose in CD-1 mice
Assay type: in vivo, mouse
Details: female, mouse; CD-1 mice, single IP 5 mg/kg, plasma
MEASURED PARAMETER: Tmax (min)

MOLECULE | MEASURED PARAMETER | RESULT
O=c1c(O)ccccc1-c1ccc2ccccc2c1 [MO-OH-Nap, MO-OH-Nap tropolone] | Tmax | 18

====

Experiment: Tissue distribution after single IP dose in CD-1 mice
Format: in vivo, mouse
Conditions: female, CD-1, mouse, kidney; 2 h after single IP 5 mg/kg; read-out: tissue concentration, kidney
Experimental: MO-OH-Nap was dissolved in a 5% DMSO, 45% w/v hydroxypropyl-β-cyclodextrin solution in PBS (final concentration 0.625 mg/mL MO-OH-Nap). MO-OH-Nap (5 mg/kg) was administered IP. […] Plasma concentrations (ng/mL) and tissue concentrations (ng/g) were determined for each time point collected using LC-MS/MS analysis.

COMPOUND | concentration at 2 h (ng/g)
O=c1c(O)ccccc1-c1ccc2ccccc2c1 [MO-OH-Nap, MO-OH-Nap tropolone] | 750
